- assayed target: recombinant human GST-Syk (Homo sapiens, UniProt P43405)
- Construct: purchased Carna Biosciences 08-176
- assay: Homogeneous Time-Resolved Fluorescence (HTRF) assay for the recombinant human Syk enzyme
- Assay type: biochemical
- condition context: recombinant human GST-Syk 5 pM, ATP 25 μM, read-out: IC50
reported property: IC50 (nM)
Numbers only here, please. The scale is nM.

Take a look at these entries with their results.
Recall and state the measured IC50 for Cc1cc(Nc2cc(C(F)F)ccn2)nc(-c2ccc([C@](C)(O)[C@H]3CC[C@H](C(=O)OCOC(=O)OCC[S+](C)[O-])CC3)nc2)c1 (single isomer, unassigned) [Example 7-6] . 1

Recall and state the measured IC50 for Cc1cc(Nc2cc(C(F)F)ccn2)nc(-c2ccc([C@](C)(O)[C@H]3CC[C@H](C(=O)OC[N+](C)(C4CCCCC4)C4CCCCC4)CC3)nc2)c1 . 1

Recall and state the measured IC50 for CC[N+]1(COC(=O)[C@H]2CC[C@H]([C@@](C)(O)c3ccc(-c4cc(C)cc(Nc5cc(C(F)F)ccn5)n4)cn3)CC2)CCCCC1 . 2.3

Recall and state the measured IC50 for Cc1cc(Nc2cc(C(F)F)ccn2)nc(-c2ccc([C@](C)(O)[C@H]3CC[C@H](C(=O)O[C@H]4CC[C@H](N(C)C)CC4)CC3)nc2)c1 . 3.2

Recall and state the measured IC50 for Cc1cc(Nc2cc(C(F)F)ccn2)nc(-c2ccc([C@](C)(O)[C@H]3CC[C@H](C(=O)OC[N+](C)(C)C4CCCCC4)CC3)nc2)c1 . 0.9

Next:
Recall and state the measured IC50 for Cc1cc(Nc2cc(C(F)F)ccn2)nc(-c2ccc([C@](C)(O)[C@H]3CC[C@H](C(=O)OC[N+]4(C)CCN(CCO)CC4)CC3)nc2)c1 . 2.9

Recall and state the measured IC50 for Cc1cc(Nc2cc(C(F)F)ccn2)nc(-c2ccc([C@](C)(O)[C@H]3CC[C@H](C(=O)OCc4nccn4C)CC3)nc2)c1 . 2.1

* * *

Each entry below carries its reported solubility.
- assay: Solubility in biorelevant fasted state simulated intestinal fluid (FaSSIF)
- Assay type: physicochemical
- condition context: FaSSIF (fasted state simulated intestinal fluid), 25 °C, fassif, kinetic from dmso stock, FaSSIF, equilibrated overnight at 25° C., maximum solubility approximately 200 μM; read-out: Solubility
Numbers only here, please. The scale is µM.

Recall and state the measured solubility for Cc1cc(Nc2cc(C(F)F)ccn2)nc(-c2ccc([C@](C)(O)[C@H]3CC[C@H](C(=O)OC[N+]4(C)CCOCC4)CC3)nc2)c1.[I-] . 200

Recall and state the measured solubility for Cc1cc(Nc2cc(C(F)F)ccn2)nc(-c2ccc([C@](C)(O)[C@H]3CC[C@H](C(=O)OC4CC5CCC(C4)N5)CC3)nc2)c1 (some centres unmarked) . 109

* * *

Each entry below carries its reported solubility.
- assay: Solubility in biorelevant fasted state simulated intestinal fluid (FaSSIF)
- Assay type: physicochemical
- condition context: 25 °C, fassif, kinetic from dmso stock, Solubility
Numbers only here, please. The scale is µM.

Take a look at these entries with their results.
Recall and state the measured solubility for COCCN(C)C(=O)OC(C)OC(=O)[C@H]1CC[C@H]([C@@](C)(O)c2ccc(-c3cc(C)cc(Nc4cc(C(F)F)ccn4)n3)cn2)CC1 (single isomer, unassigned) . 40

Recall and state the measured solubility for Cc1cc(Nc2cc(C(F)F)ccn2)nc(-c2ccc([C@](C)(O)[C@H]3CC[C@H](C(=O)OC[N+](C)(C)C(C)C)CC3)nc2)c1 . 97

Recall and state the measured solubility for Cc1cc(Nc2cc(C(F)F)ccn2)nc(-c2ccc([C@](C)(O)[C@H]3CC[C@H](C(=O)O[C@H]4CC[C@H](N(C)C)CC4)CC3)nc2)c1 . 162

Recall and state the measured solubility for Cc1cc(Nc2cc(C(F)F)ccn2)nc(-c2ccc([C@](C)(O)[C@H]3CC[C@H](C(=O)OCC[S@+](C)[O-])CC3)nc2)c1 (single isomer, unassigned) . 52

Recall and state the measured solubility for Cc1cc(Nc2cc(C(F)F)ccn2)nc(-c2ccc([C@](C)(O)[C@H]3CC[C@H](C(=O)OCOC(=O)[C@@H](O)Cc4ccc(O)cc4)CC3)nc2)c1 . 89

Recall and state the measured solubility for Cc1cc(Nc2cc(C(F)F)ccn2)nc(-c2ccc([C@](C)(O)[C@H]3CC[C@H](C(=O)OCC4CCOCC4)CC3)nc2)c1 . 47

Next:
Recall and state the measured solubility for Cc1cc(Nc2cc(C(F)F)ccn2)nc(-c2ccc([C@](C)(O)[C@H]3CC[C@H](C(=O)OC[N+]4(C)CCC(CO)CC4)CC3)nc2)c1 (stereo partly shown) . 176

Recall and state the measured solubility for Cc1cc(Nc2cc(C(F)F)ccn2)nc(-c2ccc([C@](C)(O)[C@H]3CC[C@H](C(=O)OC[N+](C)(C)CCN(C)C)CC3)nc2)c1 . 53

Recall and state the measured solubility for Cc1cc(Nc2cc(C(F)F)ccn2)nc(-c2ccc([C@](C)(O)[C@H]3CC[C@H](C(=O)OC4CCNCC4)CC3)nc2)c1 . 136

Recall and state the measured solubility for Cc1cc(Nc2cc(C(F)F)ccn2)nc(-c2ccc([C@](C)(O)[C@H]3CC[C@H](C(=O)OC[N+]4(C)CCN(C)CC4)CC3)nc2)c1 . 68

Recall and state the measured solubility for Cc1cc(Nc2cc(C(F)F)ccn2)nc(-c2ccc([C@](C)(O)[C@H]3CC[C@H](C(=O)OCn4ccnc4)CC3)nc2)c1 . 156

Recall and state the measured solubility for Cc1cc(Nc2cc(C(F)F)ccn2)nc(-c2ccc([C@](C)(O)[C@H]3CC[C@H](C(=O)OC[C@H](O)CO)CC3)nc2)c1 . 165

Recall and state the measured solubility for Cc1cc(Nc2cc(C(F)F)ccn2)nc(-c2ccc([C@](C)(O)[C@H]3CC[C@H](C(=O)OC[N+](C)(C)CCOCCN(C)C)CC3)nc2)c1 . 98
